Entry source: ChEMBL document CHEMBL3351307

molecular target: Hypoxia inducible factors; HIF-1-alpha, HIF-2-alpha (Homo sapiens, UniProt Q16665+Q99814); experiment: Inhibition of HIF1 signaling in human U251 cells expressing VEGF by VEGF promoter-driven PLAP reporter gene assay; type: cell-based; settings: u-251
Quick list: IC50 per entry.
attribute_measured: IC50

{"substance_smiles": "O=C(Nc1cccc(I)c1)c1ccc(CN2CCOCC2)cc1", "value_observed": "2200 nM"}
{"substance_smiles": "O=C(Nc1ccc(C(F)(F)F)cc1)c1ccc(CN2CCOCC2)cn1", "value_observed": "230 nM"}
{"substance_smiles": "O=C(Nc1ccc(C(F)(F)F)cc1)c1ccc(CN2CCN(Cc3ccccc3)CC2)cc1", "value_observed": "13 nM"}
{"substance_smiles": "O=C(Nc1ccc(C#Cc2cccnc2)cc1)c1ccc(CN2CCN(Cc3cccnc3)CC2)cc1", "value_observed": "34 nM"}
{"substance_smiles": "O=C(Nc1ccc(C(F)(F)F)cc1)c1ccc(CN2CCOCC2)nc1", "value_observed": "4500 nM"}
